procedure_details: AUC (0 to infinity) in Sprague-Dawley rat at 25 mg/kg administered via oral gavage by LC-MS/MS analysis
Type: ADME, organism-based
Parameters: dose 25 mg/kg, route oral, time infinity
condition: in vivo
For each entry below, report its AUC(0-inf) value.
Hi! Could you send only the number? It should be in ng·h/mL, unit omitted.

Exercise: Can you look up the measured AUC(0-inf) of C=CC(=O)Nc1cccc(-n2c(=O)cc(C)c3cnc(Nc4ccc(N5CCN(C)CC5)cc4OC)nc32)c1.CS(=O)(=O)O for me?
Solution: 243

Exercise: Can you look up the measured AUC(0-inf) of C=CC(=O)Nc1cc(-n2c(=O)cc(C)c3cnc(Nc4ccc(N5CCN(C)CC5)cc4OC)nc32)cc(C(F)(F)F)c1.CS(=O)(=O)O for me?
Solution: 671

Exercise: Can you look up the measured AUC(0-inf) of C=CC(=O)Nc1cc(-n2c(=O)cc(C)c3cnc(Nc4ccc(N5CC(C)N(C)C(C)C5)cc4OC)nc32)cc(C(F)(F)F)c1.CS(=O)(=O)O (stereo unspecified) for me?
Solution: 89.7

Exercise: Can you look up the measured AUC(0-inf) of C=CC(=O)Nc1cccc(-n2c(=O)cc(C)c3cnc(Nc4ccc(N5CC(C)N(C)C(C)C5)cc4OC)nc32)c1.CS(=O)(=O)O (stereo unspecified) for me?
Solution: 613

Exercise: Can you look up the measured AUC(0-inf) of C=CC(=O)Nc1cc(-n2c(=O)cc(C)c3cnc(Nc4ccc(N5CCN(C)C(C)C5)cc4OC)nc32)cc(C(F)(F)F)c1.CS(=O)(=O)O (stereo unspecified) for me?
Solution: 111

Exercise: Can you look up the measured AUC(0-inf) of C=CC(=O)Nc1cccc(-n2c(=O)cc(C)c3cnc(Nc4ccc(N5CCN(C)C(C)C5)cc4OC)nc32)c1.CS(=O)(=O)O (stereo unspecified) for me?
Solution: 526

====

subject_of_test: Epidermal growth factor receptor (Homo sapiens, UniProt P00533, L858R/T790M)
Sequence (P00533 25-1210 T790M/L858R limits assumed): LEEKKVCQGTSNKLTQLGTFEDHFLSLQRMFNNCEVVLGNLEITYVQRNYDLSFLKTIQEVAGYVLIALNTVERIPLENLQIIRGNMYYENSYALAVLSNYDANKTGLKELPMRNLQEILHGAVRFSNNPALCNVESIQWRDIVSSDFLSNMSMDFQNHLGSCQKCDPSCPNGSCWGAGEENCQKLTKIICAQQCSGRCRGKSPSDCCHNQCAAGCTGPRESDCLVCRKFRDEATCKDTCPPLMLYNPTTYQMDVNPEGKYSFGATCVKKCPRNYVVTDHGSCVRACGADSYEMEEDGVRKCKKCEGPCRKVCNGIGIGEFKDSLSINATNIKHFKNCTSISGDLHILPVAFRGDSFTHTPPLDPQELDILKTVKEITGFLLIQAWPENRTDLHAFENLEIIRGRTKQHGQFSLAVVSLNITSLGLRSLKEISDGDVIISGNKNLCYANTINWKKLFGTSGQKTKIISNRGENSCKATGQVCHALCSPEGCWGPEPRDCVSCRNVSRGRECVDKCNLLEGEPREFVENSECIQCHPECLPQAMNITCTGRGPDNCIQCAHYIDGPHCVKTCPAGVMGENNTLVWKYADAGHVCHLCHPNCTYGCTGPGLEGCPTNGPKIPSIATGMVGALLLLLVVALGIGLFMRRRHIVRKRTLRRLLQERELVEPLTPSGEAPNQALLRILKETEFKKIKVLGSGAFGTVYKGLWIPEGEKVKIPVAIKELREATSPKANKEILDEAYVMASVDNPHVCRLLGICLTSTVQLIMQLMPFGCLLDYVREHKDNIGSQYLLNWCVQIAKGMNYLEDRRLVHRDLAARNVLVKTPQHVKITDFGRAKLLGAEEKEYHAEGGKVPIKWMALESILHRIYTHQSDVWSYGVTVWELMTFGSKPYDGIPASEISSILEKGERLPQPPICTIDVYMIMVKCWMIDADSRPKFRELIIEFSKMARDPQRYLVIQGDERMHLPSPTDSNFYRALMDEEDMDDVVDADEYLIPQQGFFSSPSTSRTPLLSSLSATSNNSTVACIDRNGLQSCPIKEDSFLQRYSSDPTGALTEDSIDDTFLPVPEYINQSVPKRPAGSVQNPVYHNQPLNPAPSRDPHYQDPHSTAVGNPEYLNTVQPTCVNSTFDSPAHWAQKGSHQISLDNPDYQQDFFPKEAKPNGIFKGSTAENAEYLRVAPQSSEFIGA
procedure_details: Inhibition of N-terminal 6His/TEV protease cleavage site-tagged human EGFR L858R/T790M double mutant (696 to 1022 residues) using poly (Glu,Tyr) 4:1 as substrate after 1 hr by ELISA
reported_metric: pIC50
Bear in mind: pIC50 is minus log10 of a mol/L concentration; give just that figure.

Exercise: Can you look up the measured pIC50 of C=CC(=O)Nc1cc(-n2c(=O)cc(C)c3cnc(Nc4ccc(N5CC(C)N(C)C(C)C5)cc4OC)nc32)cc(C(F)(F)F)c1 (centres undefined) for me?
Solution: 8.48

Exercise: Can you look up the measured pIC50 of C=CC(=O)Nc1cc(-n2c(=O)cc(C)c3cnc(Nc4ccc(N5CCN(C)CC5)cc4OC)nc32)cc(C(C)(C)C)c1 for me?
Solution: 7.75

Exercise: Can you look up the measured pIC50 of C=CC(=O)Nc1cc(Cl)cc(-n2c(=O)cc(C)c3cnc(Nc4ccc(N5CCN(C)CC5)cc4OC)nc32)c1 for me?
Solution: 9.22

====

For each entry below, report its IC50 value.
subject_of_test: Epidermal growth factor receptor (Homo sapiens)
procedure_details: Inhibition of N-terminal 6His/TEV protease cleavage site-tagged wild type human EGFR using poly (Glu,Tyr) 4:1 as substrate after 1 hr by ELISA

Exercise: Can you look up the measured IC50 of C=CC(=O)N1CCC(Cn2c(=O)cc(C)c3cnc(Nc4ccc(N5CCN(C)CC5)cc4OC)nc32)C1 (racemic) for me?
Solution: > 1000 nM

Exercise: Can you look up the measured IC50 of C=CC(=O)N1CCC(n2c(=O)cc(C)c3cnc(Nc4ccc(N5CCN(C)CC5)cc4OC)nc32)CC1 for me?
Solution: > 1000 nM

Exercise: Can you look up the measured IC50 of C=CC(=O)Nc1cc(-n2c(=O)cc(C)c3cnc(Nc4ccc(N5CCN(C)CC5)cc4OC)nc32)cc(C(C)(C)C)c1 for me?
Solution: > 1000 nM
